- tested_target: Cytochrome P450 2C19 (Homo sapiens) (UniProt P33261)
- Sequence (P33261 whole entry, looked up): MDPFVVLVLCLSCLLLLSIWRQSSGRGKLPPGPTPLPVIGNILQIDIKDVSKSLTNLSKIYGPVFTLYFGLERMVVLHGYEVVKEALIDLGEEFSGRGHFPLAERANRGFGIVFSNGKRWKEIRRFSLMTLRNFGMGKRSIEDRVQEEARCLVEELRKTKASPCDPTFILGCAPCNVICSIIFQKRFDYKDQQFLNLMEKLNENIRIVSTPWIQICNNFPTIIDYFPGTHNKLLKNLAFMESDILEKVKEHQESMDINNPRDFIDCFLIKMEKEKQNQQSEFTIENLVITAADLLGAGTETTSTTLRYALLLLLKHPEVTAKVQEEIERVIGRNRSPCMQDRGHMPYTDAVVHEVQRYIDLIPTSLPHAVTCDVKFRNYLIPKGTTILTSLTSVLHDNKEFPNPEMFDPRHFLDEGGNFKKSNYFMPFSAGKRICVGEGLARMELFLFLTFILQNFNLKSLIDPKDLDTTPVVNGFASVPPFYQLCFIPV
- assay_details: blockers of cytochrome P450 2C19 activity – biochemical, luminescence, ADME assay, primary screen (AID 778);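 also: plate controls were negative control wells for no effect and 2.5 mM tranylcypromine positive control for full effect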
- details: CYP2C19 Supersomes, luciferin-H EGE luminescence, 30 min; at 5 µM
Hit rate of the full screen: of about 96,000 compounds, about 20,000 (21%) were called active.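 The calls were made as follows: active = CYP2C19 inhibition above a set limit at 5 µM in the primary screen (cut at about 50% in these data); inactive = the rest.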 Not all results are given here.
Select the matching outcome among 1 (yes) = active, 0 (no) = inactive

stdin: How did this test come out for CC1=C(C(=O)Nc2ccc(Cl)cc2)C(c2ccco2)NC(=O)N1 (stereo not drawn) ?
stdout: 0 (no)

stdin: Hey, what did the test say about CN1CCN(C(=O)C2C3C=CC(C3)C2C(=O)O)CC1 (stereo not drawn) ?
stdout: 0 (no)

stdin: Record request — test call for Cc1cccc(NC(=O)CSc2nnc(-c3ccco3)o2)c1
stdout: 0 (no)

stdin: Test call, this molecule: O=S(=O)(O)CCN1CCOCC1
stdout: 0 (no)

stdin: I would be grateful if you could indicate the recorded call for CCCC(=O)Nc1nnc(CC(=O)OCC)s1 .
stdout: 0 (no)

stdin: Short answer needed: outcome of this test for O=C(CSc1nnc(-c2ccco2)o1)NCC(=O)c1ccccc1 ?
stdout: 0 (no)

stdin: Hi, sorry to bother you, what did the test record for COC(=O)c1sc(=S)n(-c2ccc(Cl)cc2)c1C ?
stdout: 1 (yes)

stdin: Per the assay record, what outcome was assigned to COc1ccccc1-c1nc(C#N)c(N2CCC(C(N)=O)CC2)o1 ?
stdout: 0 (no)

stdin: Tell me the assay call for COC(=O)c1sc(=S)n(-c2ccccc2)c1N please.
stdout: 0 (no)

stdin: Outcome logged for CSCCC(Nc1nc2ccccc2s1)C(=O)O (stereo not drawn) in this assay:
stdout: 0 (no)

stdin: Assay result, entry CSc1nc2ccc(S(=O)(=O)N3CCc4ccccc43)cc2s1 — outcome?
stdout: 0 (no)

stdin: Test call for this molecule, please: C[C@H](NC(=O)OC(C)(C)C)c1nnc(SCC(N)=O)o1
stdout: 0 (no)

stdin: Status in this test for COc1cccc(C(=O)Nc2ccc(NC(=O)c3ccco3)cn2)c1 ?
stdout: 0 (no)

stdin: // return assay outcome for Cc1cccc(NC(=O)CSc2nnc(CCCCCNC(=O)OC(C)(C)C)o2)c1C
stdout: 1 (yes)

stdin: Per the records of this test, what outcome belongs to COc1ccc(C(=O)OCC(=O)NCC2CCCCC2)cc1S(=O)(=O)N1CCCc2ccccc21 ?
stdout: 0 (no)

stdin: Returns: the outcome recorded for O=C1CC(C(F)(F)C(F)(F)C(F)(F)C(F)(F)F)=Nc2ccccc2N1 in this assay.
stdout: 0 (no)

stdin: Entry Cc1cccn2c(=O)c(/C=C(\C#N)S(=O)(=O)c3ccc(Cl)cc3)c(N3CCC(C(N)=O)CC3)nc12 : call = ?
stdout: 1 (yes)

stdin: What is the recorded call for this molecule in the test? Cc1cc(C)c(S(=O)(=O)NCCCN2CCOCC2)cc1Br
stdout: 1 (yes)

stdin: What did the test return for C[C@H](NC(=O)OC(C)(C)C)c1nnc(SCC(=O)Nc2ccc(Br)cc2)o1 ?
stdout: 1 (yes)

stdin: Call for entry Cn1c(=O)[nH]c(=O)c2c1nc(Br)n2CCCCSc1nc2ccccc2o1 :
stdout: 0 (no)

stdin: What outcome does the record of this test show for CCc1ccccc1NC(=O)CSc1nnc([C@@H](NC(=O)OC(C)(C)C)C(C)CC)o1 (stereo partly drawn) ?
stdout: 1 (yes)

stdin: Look up the recorded call for Cn1c(=O)n(C)c2cc(S(=O)(=O)N3CCCc4ccccc43)ccc21 in this test.
stdout: 1 (yes)

stdin: What outcome does the record of this test show for COC(=O)c1ccccc1NC(=O)Cn1nc(C(F)(F)F)c2c1CCC2 ?
stdout: 0 (no)
